- subject of test: human B1R receptor (bradykinin 1 receptor) (Homo sapiens)
- Construct: host or cells: CHO K1 cells (hB1R cells)
- Sequence (P46663 whole entry): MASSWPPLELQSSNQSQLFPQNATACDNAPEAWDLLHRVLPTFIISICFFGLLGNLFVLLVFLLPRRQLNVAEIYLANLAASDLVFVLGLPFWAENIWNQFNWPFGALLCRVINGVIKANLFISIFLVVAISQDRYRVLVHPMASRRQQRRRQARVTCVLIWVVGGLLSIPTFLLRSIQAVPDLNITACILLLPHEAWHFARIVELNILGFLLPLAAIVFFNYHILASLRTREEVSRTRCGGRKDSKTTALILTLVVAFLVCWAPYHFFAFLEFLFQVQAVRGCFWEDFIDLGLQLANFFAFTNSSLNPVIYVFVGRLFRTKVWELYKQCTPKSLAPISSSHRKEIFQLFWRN
- method: FLIPR Ca2+ assay (Fluo-4) on CHO K1 cells stably transfected with the human B1R gene; % activation and % inhibition at 10 μM
- Assay type: cell-based
- condition set: test substance 10 μM; CHO K1 hB1R cells; Ca2+ inflow after 0.5 nM Lys-Des-Arg9-bradykinin; hydrochloride
- Description: The agonistic or antagonistic action of substances can be quantified on the bradykinin receptor 1 (B1R) of the species human and rat with ectopically expressing cell lines (CHO K1 cells) and with the aid of a Ca^2+-sensitive dye (Fluo-4) using a fluorescent imaging plate reader (FLIPR). […] The agonistic or antagonistic action of substances can be determined on the bradykinin 1 receptor (B1R) of the human and rat species with the following assay. […]
Where a name gives a salt, the structure may show the parent alone.
measurement name: B1R antagonism, human [10 μM] % inhibition (%)

COc1cc(C)c(S(=O)(=O)N2CCCC2COCC(=O)N2CCC(O)(c3cccnc3)CC2)c(C)c1 (stereo not shown) [Example 89, hydrochloride]: 104.46
CN(CCOCC(=O)N1CCC(O)(c2cccnc2)CC1)S(=O)(=O)c1c(Cl)cc(Cl)cc1Cl [Example 5, hydrochloride]: 101.04
COc1cc(C)c(S(=O)(=O)N2CCCCC2COCC(=O)N2CCC(O)(c3cccnc3)CC2)c(C)c1 (stereo not shown) [Example 87, hydrochloride]: 101.8
COc1cc(C)c(S(=O)(=O)N(C)CCOCC(=O)N2CCC(O)(c3cccnc3)CC2)c(C)c1 [Example 3, hydrochloride]: 102.19

Where these numbers come from: patent US8580965B2
